- Experimental Protocol: Absorption and fluorescence spectra, extinction coefficient, fluorescence quantum yield
- Type: physicochemical
- Conditions Used: Butanol (BuOH)
- Description: Absorption spectra were recorded on a Hewlett-Packard 8453 diode array UV-Vis spectrophotometer (Agilent Technologies, Inc., Santa Clara, Calif.), and fluorescence measurements were taken on a SPEX® Fluorolog 2 spectrofluorometer (HORIBA Jobin Yvon, Inc., Edison, N.J.). Melting points are not corrected. NMR spectra were obtained on a Varian Mercury 300 MHz (Varian, Inc., Palo Alto, Calif.) or on a Bruker 300 MHz DRX 300 spectrometer (Bruker Biospin Corp., Billerica, Mass.). […]
Please enter Condition met where Absorbance λmax is greater than or equal to 600 nm, and Condition not met where it is lower.

Solved entries (count: 4):
> print(dat)
                                   molecule  qualitative.label
1  CCn1c([O-])c(/C=C/C=C/c2cc[n+]3c(c2)C(C)(C)c2ccccc2-3)c(=O)n(CC)c1=S [AI-TBA]      Condition met
2  CC1(C)c2ccccc2-[n+]2ccc(/C=C/C=C/C3=C(O)c4ccccc4S3(=O)=O)cc21 [AI-SO]      Condition met
3  CC1(C)c2ccccc2-[n+]2ccc(/C(C#N)=C/C=C/C3=C(O)c4ccccc4S3(=O)=O)cc21 [AI-SO-CN]      Condition met
4  CCN1/C(=C(C#N)/C=C/C=C2/C(=O)c3ccccc3S2(=O)=O)Sc2ccccc21 [S-SO-CN]  Condition not met

Exam item: decide whether the reported Absorbance λmax for CCn1c(O)c(/C=C/C=C(\C#N)c2cc[n+]3c(c2)C(C)(C)c2ccccc2-3)c(=O)n(CC)c1=S [AI-TBA-CN] is at least 600 nm. Condition met

Given CN1/C(=C(C#N)/C=C/C=C2/C(=O)c3ccccc3S2(=O)=O)C(C)(C)c2ccccc21 [I-SO-CN] , state whether its Absorbance λmax is at least 600 nm. Condition not met

* * *

- Experimental Protocol: Absorption and fluorescence spectra, extinction coefficient, fluorescence quantum yield
- Type: physicochemical
- Conditions Used: Table 10, DMF
For each record, check the reported Observed absorption λmax: if it is below 600 nm write met, else write not met.

Please review the entries below; each comes with its answer.
> print(dat)
                                item.smiles  qualitative.label
1  CC1(C)c2ccccc2-[n+]2ccc(/C=C/C=C/C3=C(O)c4ccccc4S3(=O)=O)cc21            not met
2  C[n+]1ccc(/C=C/C2=C([O-])c3ccccc3S2(=O)=O)cc1                met
3  Cn1c([O-])c(/C=C/C=C/c2cc[n+]3c(c2)C(C)(C)c2ccccc2-3)c(=O)n(C)c1=O            not met

Now look at this entry.
Given the entry `CC1(C)c2ccccc2-[n+]2ccc(/C=C/C3=C([O-])c4ccccc4S3(=O)=O)cc21` , would its reported Observed absorption λmax be below 600 nm? met

* * *

- Experimental Protocol: Absorption and fluorescence spectra, extinction coefficient, fluorescence quantum yield
- Type: physicochemical
- Conditions Used: Table 12, C6H6
Observed Property: Absorption Exp wavelength (nm)
Number only, in nm; omit the unit.

> print(dat)
                                   molecule  measured.result
1  CCn1c([O-])c(/C=C/C=C/c2cc[n+]3c(c2)C(C)(C)c2ccccc2-3)c(=O)n(CC)c1=S [AI-TBA]              683
2  CC1(C)c2ccccc2-[n+]2ccc(/C=C/C=C/C3=C(O)c4ccccc4S3(=O)=O)cc21 [AI-SO]              679
3  Cn1c([O-])c(/C=C/C=C/c2cc[n+]3c(c2)C(C)(C)c2ccccc2-3)c(=O)n(C)c1=O [AI-BA]              662
4  CN1/C(=C/C=C/C=C2/C(=O)c3ccccc3S2(=O)=O)C(C)(C)c2ccccc21 [I-SO, reference compound]              571

Now, please, on to the next molecule.
Give recorded Absorption Exp wavelength. CCN1C(=O)\C(=C/C=C/C=C2/N(C)c3ccccc3C2(C)C)C(O)N(CC)C1=S (centres unmarked) [I-TBA, reference compound] 585
